Measured abundance fitness of individual entries
B1: Far upstream element-binding protein 1, residues 184 to 257; numbered along this chain, Q96AE4 (parent)
chain: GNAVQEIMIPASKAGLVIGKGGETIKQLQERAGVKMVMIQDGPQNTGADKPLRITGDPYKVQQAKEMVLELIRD

- Variants of: B1
- test: abundance fitness (aPCA) (normalised: wild type 0, dead -1); higher = more abundant; growth selection in yeast, the domain comes from the species named
- study conditions: Homo sapiens
// keep it numeric: no unit symbol after the value

Past entries and their recorded results:
• GNAVQEIMIPASKAGLVIGKGGETIKQLQERAGVKMVMIQDGPQNTGADKPLRITGDPYKWQQAKEMVLELIRD = -1.17
• GNAVQEIMIPASKAGLVIGKGGETIKQLQERAGVKMVMIQDGPQNTGADKPLRITGDPYHVQQAKEMVLELIRD = -0.01
• GNAVQEIMIPASKAGLVIGKGGETIKQLQERAGVKMVMIQDGPQNTGADKPLRITGDPYKVQQAKEMPLELIRD = -0.428
• GNAVQEIMIPASKAGLVIGKGGETIKQLQERAGVKMVMIQDGPQNTGADKALRITGDPYKVQQAKEMVLELIRD = -0.011
• GNAVQEIMIPASKAGLVIGKGGETIKQLQERADVKMVMIQDGPQNTGADKPLRITGDPYKVQQAKEMVLELIRD = -0.083
• GNAVQEIMIPASKAGLVIGKGGETIKQLQERAGVKMVMIQDGPQNTGADKPLRITGDPYKVQQAKCMVLELIRD = -0.106
• GNAVQEIMIPASKAGLVIGKGGETIKQLQERAGVKMVMIQDYPQNTGADKPLRITGDPYKVQQAKEMVLELIRD = 0.055
• GNAVQEIMIPASKAGLVIGKGGETIKQLQELAGVKMVMIQDGPQNTGADKPLRITGDPYKVQQAKEMVLELIRD = -0.125

Entry `GNAVQEIMIPASLAGLVIGKGGETIKQLQERAGVKMVMIQDGPQNTGADKPLRITGDPYKVQQAKEMVLELIRD` , abundance fitness reported as -0.114

Entry `GNAVQEIMIPASKAGLVIGKGGETIKQLQERAGVKMVMIQDGPQNTGADKPLRITGDPYKVQQAKEMVLELIRT` , abundance fitness reported as -0.076

Entry `GNAVQEIMIPASKAGLVIGKGGETIKQLQERAGVKMVMIQDGPQNTGEDKPLRITGDPYKVQQAKEMVLELIRD` , abundance fitness reported as 0.021
